test: First-in-human study, multiple ascending dose; assay type: in vivo; settings: human, plasma, oral, 450 mg
valueType: half-life (h)
Supply the numeric figure in h, leaving out any unit text.

Input: Bench note: what half-life did O=c1[nH]c(=O)c(Cc2cccc(C(F)(F)F)c2)c([C@H]2CC[C@H](c3ccccc3)CC2)[nH]1 [miricorilant] show?
Output: 21.2

====

test: First-in-human study Part 3, 100-mg SDD tablet food effect; format: in vivo; settings: plasma, oral, 200 mg, Cmax, single 200 mg dose of 100‐mg SDD tablets, Fed, N = 6, geometric mean (%CV)
valueType: Cmax
A complete answer gives the number and then names the unit.

Input: Bench note: what Cmax did `O=c1[nH]c(=O)c(Cc2cccc(C(F)(F)F)c2)c([C@H]2CC[C@H](c3ccccc3)CC2)[nH]1` show?
Output: 184 ng/mL

====

assay: First-in-human study, multiple ascending dose; format: in vivo; conditions: human, plasma, oral, 900 mg
valueType: half-life (h)
Supply the numeric figure in h, leaving out any unit text.

Input: Bench note: what half-life did O=c1[nH]c(=O)c(Cc2cccc(C(F)(F)F)c2)c([C@H]2CC[C@H](c3ccccc3)CC2)[nH]1 [miricorilant] show?
Output: 19.4
